test system: HEK293T cells carrying the ATF4 luciferase reporter; assay: ATF4-Luc assay (in vitro model of VWMD); format: cell-based; details: Homo sapiens, HEK-293T; HEK293T cells with ATF4 5'-UTR firefly luciferase reporter; 1 μg/mL tunicamycin; 7 hours; One Glo luminescence
pEC50: −log10 of the molar value.
Answer each item with its documented pEC50.

Ask: Provide one value: measured pEC50 of O=C(COc1ccc(Cl)c(F)c1)N[C@@H]1CC[C@@H](C(=O)NCc2ccc(C(F)(F)F)cc2)OC1
Reply: 6.60 to 7.30

Ask: Provide one value: measured pEC50 of Cc1cc(CNC(=O)[C@@H]2CC[C@@H](NC(=O)COc3ccc(Cl)c(F)c3)CO2)n(C)n1
Reply: < 5.70

Ask: Provide one value: measured pEC50 of O=C(COc1ccc(Cl)c(F)c1)N[C@H]1CC[C@@H](C(=O)N2CC(c3ccc(Cl)cc3)C2)CC1
Reply: < 5.70

Ask: Provide one value: measured pEC50 of O=C(COc1ccc(Cl)c(F)c1)N[C@H]1CC[C@@H](C(=O)NCc2ccc(C(F)(F)F)cn2)OC1 (single isomer, unassigned)
Reply: < 5.70

Ask: Provide one value: measured pEC50 of O=C(COc1ccc(Cl)c(F)c1)N[C@H]1CC[C@H](C(=O)NCc2ccc(OC(F)F)nc2)CC1
Reply: 6.60 to 7.30

Ask: Provide one value: measured pEC50 of O=C(COc1ccc(Cl)c(F)c1)N[C@@H]1CC[C@@H](C(=O)N2CC(c3ccc(Cl)cc3)C2)OC1
Reply: 7.30 to 8.00

Ask: Provide one value: measured pEC50 of Cc1ccc(CNC(=O)[C@H]2CC[C@H](NC(=O)COc3ccc(Cl)c(Cl)c3)CC2)nc1
Reply: < 5.70

Ask: Provide one value: measured pEC50 of CN(Cc1cccnc1)C(=O)[C@H]1CC[C@H](NC(=O)COc2ccc(Cl)c(Cl)c2)CC1
Reply: < 5.70

Ask: Provide one value: measured pEC50 of O=C(COc1ccc(Cl)c(F)c1)N[C@@H]1CC[C@@H](C(=O)NCc2cnc(C(F)(F)F)nc2)OC1
Reply: 6.30 to 6.60

----------
Answer each item with its documented EC50.
system: HEK293T cells carrying the ATF4 luciferase reporter; experiment: ATF4-Luc assay (in vitro model of VWMD); assay type: cell-based; details: Homo sapiens, HEK-293T; HEK293T cells with ATF4 5'-UTR firefly luciferase reporter; 1 μg/mL tunicamycin; 7 hours; One Glo luminescence

Ask: Provide one value: measured EC50 of O=C(COc1ccc(Cl)c(F)c1)N[C@@H]1CC[C@@H](C(=O)NCc2ccc3c(c2)OC(F)(F)O3)OC1 [Compound 167]
Reply: 50 to 250 nM

Ask: Provide one value: measured EC50 of O=C(COc1ccc(Cl)c(F)c1)N[C@@H]1CC[C@@H](C(=O)N2CCn3c(nnc3C(F)(F)F)C2)OC1 [Compound 144]
Reply: > 2000 nM

Ask: Provide one value: measured EC50 of O=C(COc1ccc(Cl)c(F)c1)N[C@H]1CC[C@H](C(=O)N2CCC[C@H]2c2cc(F)ccc2F)CC1 [Compound 114]
Reply: > 2000 nM

Ask: Provide one value: measured EC50 of O=C(COc1ccc(Cl)c(F)c1)N[C@@H]1CC[C@@H](C(=O)NCc2cn3ccc(Cl)cc3n2)OC1 [Compound 138]
Reply: 10 to 50 nM

Ask: Provide one value: measured EC50 of O=C(COc1ccc(Cl)c(F)c1)N[C@@H]1CC[C@@H](C(=O)NCc2ccc(C(F)(F)F)cn2)OC1 [Compound 186]
Reply: 10 to 50 nM

Ask: Provide one value: measured EC50 of O=C(COc1ccc(Cl)c(F)c1)N[C@H]1CC[C@H](C(=O)NCc2ccc(C(F)F)cn2)CC1 [Compound 187]
Reply: 10 to 50 nM

Ask: Provide one value: measured EC50 of O=C(COc1ccc(Cl)c(F)c1)N[C@H]1CC[C@H](C(=O)NCc2ccc(C(F)(F)F)cn2)OC1 [Compound 159]
Reply: 10 to 50 nM

Ask: Provide one value: measured EC50 of O=C(COc1ccc(Cl)c(F)c1)N[C@H]1CC[C@H](C(=O)NCc2ccc(C(F)(F)F)cn2)CC1 [Compound 119]
Reply: < 10 nM

Ask: Provide one value: measured EC50 of O=C(COc1ccc(C(F)(F)F)nc1)N[C@H]1CC[C@H](C(=O)NCc2nc3cc(Cl)ccc3[nH]2)CC1 [Compound 147]
Reply: > 2000 nM

Ask: Provide one value: measured EC50 of O=C(COc1ccc(Cl)c(F)c1)N[C@H]1CC[C@H](C(=O)N2Cc3ccc(Cl)cc3C2)CC1 [Compound 132]
Reply: 10 to 50 nM

Ask: Provide one value: measured EC50 of N#Cc1ccc(CNC(=O)[C@H]2CC[C@H](NC(=O)COc3ccc(Cl)c(Cl)c3)CC2)nc1 [Compound 173]
Reply: 50 to 250 nM

Ask: Provide one value: measured EC50 of O=C(COc1ccc(Cl)c(F)c1)N[C@H]1CC[C@H](C(=O)NCc2ccc(Cl)c(F)c2)CC1 [Compound 112]
Reply: < 10 nM

Ask: Provide one value: measured EC50 of O=C(COc1ccc(Cl)c(F)c1)N[C@H]1CC[C@H](C(=O)N2CCN(c3ccc(Cl)cc3)CC2)CC1 [Compound 127]
Reply: > 2000 nM

Ask: Provide one value: measured EC50 of NC(=O)c1ccc(CNC(=O)[C@H]2CC[C@H](NC(=O)COc3ccc(Cl)c(F)c3)CC2)nc1 [Compound 172]
Reply: > 2000 nM

Ask: Provide one value: measured EC50 of O=C(COc1ccc(Cl)c(F)c1)N[C@@H]1CC[C@@H](C(=O)Nc2nccc(-c3ccc(Cl)c(F)c3)n2)OC1 [Compound 145]
Reply: 500 to 2000 nM

Ask: Provide one value: measured EC50 of O=C(COc1ccc(Cl)c(F)c1)N[C@H]1CC[C@H](C(=O)N(CCO)Cc2ccc(Cl)c(F)c2)CC1 [Compound 181]
Reply: 500 to 2000 nM

----------
test system: HEK293T cells carrying the ATF4 luciferase reporter; test: ATF4-Luc assay (in vitro model of VWMD); format: cell-based; details: Homo sapiens, HEK-293T; HEK293T cells with ATF4 5'-UTR firefly luciferase reporter; 1 μg/mL tunicamycin; 7 hours; One Glo luminescence
Answer each item with its documented EC50.

Ask: GET EC50 | system: HEK293T cells carrying the ATF4 luciferase reporter | item: O=C(COc1ccc(Cl)c(F)c1)N[C@H]1C[C@H](C(=O)NCc2ccc(Cl)cc2)C1
Reply: > 2000 nM

Ask: GET EC50 | system: HEK293T cells carrying the ATF4 luciferase reporter | item: O=C(N[C@@H]1CC[C@@H](C(=O)NCc2ccc(C(F)(F)F)cn2)OC1)C1CNc2cc(Cl)ccc2O1 (mixture of isomers)
Reply: 50 to 250 nM

Ask: GET EC50 | system: HEK293T cells carrying the ATF4 luciferase reporter | item: O=C(COc1ccc(Cl)c(F)c1)N[C@H]1CC[C@H](C(=O)Nc2ccc(OC(F)(F)F)nc2)CC1
Reply: < 10 nM

Ask: GET EC50 | system: HEK293T cells carrying the ATF4 luciferase reporter | item: O=C(COc1ccc(Cl)c(F)c1)N[C@H]1CC[C@H](C(=O)N2CC(O)(c3ccc(Cl)cc3)C2)CC1
Reply: 50 to 250 nM

Ask: GET EC50 | system: HEK293T cells carrying the ATF4 luciferase reporter | item: O=C(COc1ccc(Cl)c(F)c1)N[C@@H]1CC[C@@H](C(=O)NCCc2ccc(Cl)cc2)OC1
Reply: 50 to 250 nM
